- Assayed system: Lipolase (Thermomyces lanuginosus, UniProt O59952)
- Construct: purchased Sigma-Aldrich
- Assay remarks: storage stability of lipase (Lipolase activity, pNitrophenol-valerate substrate) in liquid formulations at 37° C.
- Format: biochemical, Thermomyces lanuginosa
- Settings: base formulation I.; component (a) 2.5 wt %; Lipolase 0.4 wt %; storage at 37° C.; 20 d
Property: lipase activity (%)

Molecule | Property | Quantitative result
C[N+](C)(C)CCO.[Cl-] [C-(A.15), Choline chloride] | lipase activity | 32
C[N+](C)(C)CCO.C[N+](C)(C)CCO.O=C([O-])C(O)C(O)C(=O)[O-] (stereo not shown) | lipase activity | 34
C[N+](C)(C)CCO.C[N+](C)(C)CCO.O=C([O-])CC(O)(CC(=O)O)C(=O)[O-] | lipase activity | 38
C[N+](C)(C)CCO.C[N+](C)(C)CCO.C[N+](C)(C)CCO.O=C([O-])CC(O)(CC(=O)[O-])C(=O)[O-] | lipase activity | 39

###

Measured lipase activity by item
- Assayed system: Lipolase (Thermomyces lanuginosus, UniProt O59952)
- Construct: purchased Sigma-Aldrich
- Sequence (O59952 23-291): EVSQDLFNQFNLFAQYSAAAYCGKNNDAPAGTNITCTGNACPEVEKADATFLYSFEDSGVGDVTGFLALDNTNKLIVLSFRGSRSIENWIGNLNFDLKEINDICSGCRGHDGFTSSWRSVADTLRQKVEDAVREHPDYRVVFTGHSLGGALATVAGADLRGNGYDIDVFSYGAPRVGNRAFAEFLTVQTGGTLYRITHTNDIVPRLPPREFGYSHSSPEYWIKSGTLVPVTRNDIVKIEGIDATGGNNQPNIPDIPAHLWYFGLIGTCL
- Assay remarks: storage stability of lipase (Lipolase activity, pNitrophenol-valerate substrate) in liquid formulations at 37° C.
- Type: biochemical, Thermomyces lanuginosa
- Settings: base formulation IV.; component (a) 4.0 wt %; Lipolase 0.4 wt %; storage at 37° C.; 10 d
Property: lipase activity (%)

Molecule | Measurement unit | Quantitative result
C[N+](C)(C)CCO.C[N+](C)(C)CCO.O=C([O-])C(O)C(O)C(=O)[O-] (stereo not shown) | % | 55
C[N+](C)(C)CCO.C[N+](C)(C)CCO.C[N+](C)(C)CCO.O=C([O-])CC(O)(CC(=O)[O-])C(=O)[O-] | % | 58
C[N+](C)(C)CCO.[Cl-] [C-(A.15), Choline chloride] | % | 59
C[N+](C)(C)CCO.C[N+](C)(C)CCO.O=C([O-])CC(O)(CC(=O)O)C(=O)[O-] | % | 63

###

- Assayed system: Lipolase (Thermomyces lanuginosus)
- Construct: purchased Sigma-Aldrich
- Sequence (O59952 23-291): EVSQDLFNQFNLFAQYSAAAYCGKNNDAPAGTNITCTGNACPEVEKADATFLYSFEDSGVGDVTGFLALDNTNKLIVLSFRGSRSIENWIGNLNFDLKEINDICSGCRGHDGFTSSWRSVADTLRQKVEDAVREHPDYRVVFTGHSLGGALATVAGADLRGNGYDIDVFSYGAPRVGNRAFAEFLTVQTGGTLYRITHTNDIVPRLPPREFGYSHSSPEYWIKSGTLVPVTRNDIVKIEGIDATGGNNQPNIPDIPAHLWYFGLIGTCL
- Assay remarks: storage stability of lipase (Lipolase activity, pNitrophenol-valerate substrate) in liquid formulations at 37° C.
- Type: biochemical, Thermomyces lanuginosa
- Settings: base formulation IV.; component (a) 4.0 wt %; Lipolase 0.4 wt %; storage at 37° C.; 30 d
Property: lipase activity

Compound | Property | Result
C[N+](C)(C)CCO.C[N+](C)(C)CCO.O=C([O-])CC(O)(CC(=O)O)C(=O)[O-] [C-(A.17)] | lipase activity | 33%
C[N+](C)(C)CCO.C[N+](C)(C)CCO.O=C([O-])C(O)C(O)C(=O)[O-] (stereo not shown) [C-(A.16)] | lipase activity | 25%
C[N+](C)(C)CCO.[Cl-] [C-(A.15), Choline chloride] | lipase activity | 23%
C[N+](C)(C)CCO.C[N+](C)(C)CCO.C[N+](C)(C)CCO.O=C([O-])CC(O)(CC(=O)[O-])C(=O)[O-] [C-(A.18)] | lipase activity | 35%

###

- Assayed system: Lipolase (Thermomyces lanuginosus, UniProt O59952)
- Construct: purchased Sigma-Aldrich
- Assay remarks: storage stability of lipase (Lipolase activity, pNitrophenol-valerate substrate) in liquid formulations at 37° C.
- Format: biochemical, Thermomyces lanuginosa
- Settings: base formulation I.; component (a) 2.5 wt %; Lipolase 0.4 wt %; storage at 37° C.; 3 d
The entries below are paired with their reported lipase activity.
Property: lipase activity (%)

Compound | Property | Quantitative result
C[N+](C)(C)CCO.C[N+](C)(C)CCO.O=C([O-])C(O)C(O)C(=O)[O-] (stereo not shown) | lipase activity | 81
C[N+](C)(C)CCO.C[N+](C)(C)CCO.C[N+](C)(C)CCO.O=C([O-])CC(O)(CC(=O)[O-])C(=O)[O-] | lipase activity | 84
C[N+](C)(C)CCO.C[N+](C)(C)CCO.O=C([O-])CC(O)(CC(=O)O)C(=O)[O-] | lipase activity | 80
C[N+](C)(C)CCO.[Cl-] [C-(A.15), Choline chloride] | lipase activity | 80

###

Listing: lipase activity of selected compounds
- Assayed system: Lipolase (Thermomyces lanuginosus)
- Construct: purchased Sigma-Aldrich
- Assay remarks: storage stability of lipase (Lipolase activity, pNitrophenol-valerate substrate) in liquid formulations at 37° C.
- Assay type: biochemical, Thermomyces lanuginosa
- Settings: base formulation I.; component (a) 2.5 wt %; Lipolase 0.4 wt %; storage at 37° C.; 1 d

Compound | lipase activity
C[N+](C)(C)CCO.C[N+](C)(C)CCO.C[N+](C)(C)CCO.O=C([O-])CC(O)(CC(=O)[O-])C(=O)[O-] [C-(A.18)] | 91%
C[N+](C)(C)CCO.[Cl-] [C-(A.15), Choline chloride] | 95%
C[N+](C)(C)CCO.C[N+](C)(C)CCO.O=C([O-])CC(O)(CC(=O)O)C(=O)[O-] [C-(A.17)] | 90%
C[N+](C)(C)CCO.C[N+](C)(C)CCO.O=C([O-])C(O)C(O)C(=O)[O-] (stereo not shown) [C-(A.16)] | 90%

###

- Assayed system: Lipolase (Thermomyces lanuginosus, UniProt O59952)
- Construct: purchased Sigma-Aldrich
- Assay remarks: storage stability of lipase (Lipolase activity, pNitrophenol-valerate substrate) in liquid formulations at 37° C.
- Type: biochemical, Thermomyces lanuginosa
- Settings: base formulation IV.; component (a) 4.0 wt %; Lipolase 0.4 wt %; storage at 37° C.; 15 d
Below, each of the compounds is paired with its reported lipase activity value.
Property: lipase activity (%)

Compound | Assayed system | Measurement unit | Quantitative result
C[N+](C)(C)CCO.C[N+](C)(C)CCO.O=C([O-])CC(O)(CC(=O)O)C(=O)[O-] | Lipolase (Thermomyces lanuginosus, UniProt O59952) | % | 51
C[N+](C)(C)CCO.C[N+](C)(C)CCO.O=C([O-])C(O)C(O)C(=O)[O-] (stereo not shown) | Lipolase (Thermomyces lanuginosus, UniProt O59952) | % | 41
C[N+](C)(C)CCO.[Cl-] [C-(A.15), Choline chloride] | Lipolase (Thermomyces lanuginosus, UniProt O59952) | % | 44
C[N+](C)(C)CCO.C[N+](C)(C)CCO.C[N+](C)(C)CCO.O=C([O-])CC(O)(CC(=O)[O-])C(=O)[O-] | Lipolase (Thermomyces lanuginosus, UniProt O59952) | % | 49

###

Quick reference for lipase activity among some compounds
- Assayed system: Lipolase (Thermomyces lanuginosus, UniProt O59952)
- Construct: purchased Sigma-Aldrich
- Sequence (O59952 23-291): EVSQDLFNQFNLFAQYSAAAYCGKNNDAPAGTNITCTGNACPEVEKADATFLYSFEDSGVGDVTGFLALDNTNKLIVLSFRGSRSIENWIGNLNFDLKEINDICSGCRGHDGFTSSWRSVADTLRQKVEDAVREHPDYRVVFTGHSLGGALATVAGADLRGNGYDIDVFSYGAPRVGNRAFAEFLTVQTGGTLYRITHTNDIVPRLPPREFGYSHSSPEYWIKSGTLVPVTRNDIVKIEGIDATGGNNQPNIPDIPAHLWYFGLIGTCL
- Assay remarks: storage stability of lipase (Lipolase activity, pNitrophenol-valerate substrate) in liquid formulations at 37° C.
- Type: biochemical, Thermomyces lanuginosa
- Settings: base formulation I.; component (a) 2.5 wt %; Lipolase 0.4 wt %; storage at 37° C.; 15 d

Compound | lipase activity
C[N+](C)(C)CCO.C[N+](C)(C)CCO.C[N+](C)(C)CCO.O=C([O-])CC(O)(CC(=O)[O-])C(=O)[O-] [C-(A.18)] | 45%
C[N+](C)(C)CCO.C[N+](C)(C)CCO.O=C([O-])CC(O)(CC(=O)O)C(=O)[O-] [C-(A.17)] | 42%
C[N+](C)(C)CCO.C[N+](C)(C)CCO.O=C([O-])C(O)C(O)C(=O)[O-] (stereo not shown) [C-(A.16)] | 40%
C[N+](C)(C)CCO.[Cl-] [C-(A.15), Choline chloride] | 41%
